B1: HDV Ribozyme (parent)
chain: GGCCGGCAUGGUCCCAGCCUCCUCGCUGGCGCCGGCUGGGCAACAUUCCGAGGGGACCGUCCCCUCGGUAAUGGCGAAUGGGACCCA

variants of: B1; test: self-cleavage, relative activity (ratio to wild type); higher = more cleavage; co-transcriptional
Recorded self-cleavage determines the label; the label ranges are bin 1 (below 0.2), bin 2 (0.2 to below 0.7), bin 3 (0.7 or more)

For orientation, consider the following solved cases.
>  <chain>
GGCCGGCAUGGUCCCAGCCUCCUCGCUGGUGCCGGCUGGGCAACAUUCUGAGGGGACCGUCCCCUCGGUAAUGGCGAAUGGGACCCA [C30U C49U]

>  <label_class>
bin 3

$$$$
>  <chain>
GGCCGGCAUGGUCCCAGCCUCCUCCCUGGCGCCGGCUGGGCAACAUUCCGAAGGGACCGUCCCCUCGGUAAUGGCGAAUGGGACCCA [G25C G52A]

>  <label_class>
bin 1

$$$$
>  <chain>
GGCCGGCAUGGUCACAGCCUCCUCGCUGGCGCCGGCUGGGAAACAUUCCGAGGGGACCGUCCCCUCGGUAAUGGCGAAUGGGACCCA [C14A C41A]

>  <label_class>
bin 3

$$$$
>  <chain>
GGCCGGCAUGGUCCCAGCCUCCUCGCUGGCGCCGGCCGGGCAACAUUCCGAGGGGACCGUGCCCUCGGUAAUGGCGAAUGGGACCCA [U37C C61G]

>  <label_class>
bin 3

$$$$

[ask] Textbook exercise: identify the category of the variant given here, CGCCGGCAUGGUCCCAGCCUCCUCGCUGGCGCCGGCUGGGCAACAUUCCGAGGGGACCGUCCCCUCGGAAAUGGCGAAUGGGACCCA [G1C U69A] , according to its measured value.
[reply] bin 1

[ask] Textbook exercise: identify the category of the variant given here, GGCCGACAUGGUCCCAGCCUCCUCGCUGGCGCCGGCUGGGCAACAUUCCGAGGGGACCGUCCCCUCGGUAAUGGCGCAUGGGACCCA [G6A A77C] , according to its measured value.
[reply] bin 1

[ask] Textbook exercise: identify the category of the variant given here, GGCCGGCAUGGUCCGAGCCACCUCGCUGGCGCCGGCUGGGCAACAUUCCGAGGGGACCGUCCCCUCGGUAAUGGCGAAUGGGACCCA [C15G U20A] , according to its measured value.
[reply] bin 1

[ask] Textbook exercise: identify the category of the variant given here, GGCCGGCAUGGUCCCAGCCUCCUCGCUGGCGCCGGCUGGGCAUCAUUGCGAGGGGACCGUCCCCUCGGUAAUGGCGAAUGGGACCCA [A43U C48G] , according to its measured value.
[reply] bin 2

[ask] Textbook exercise: identify the category of the variant given here, GGCCGGCAUGGUCCCAGCCUCCUCGCUGGCGCCGGCUGGGCAACAUUCCUAGGGGACCGUCCCCUGGGUAAUGGCGAAUGGGACCCA [G50U C66G] , according to its measured value.
[reply] bin 3

// data source = the RNAGym collection of RNA variant scans (doi:10.7554/elife.80360)
